# Test system: M14 melanoma
# Assay Explanation: NCI-60 one-dose screen, 48 h
# Measurement Conditions: 10 µM unless noted
# Protocol: Growth inhibition of the M14 human tumor cell line is measured as a screen for anti-cancer activity. Cells are grown in 96 well plates and exposed to the test compound for 48 hours. Compounds are tested at a single concentration, which is 10^-5 M for most compounds. The reported endpoint is percent growth (GI% or GIPRCNT), where numbers from 0 - 100% represent growth inhibition, and numbers from -100% - 0 represent cell death. For example, a value of 40 represents 60% growth inhibition. […]
About 83,000 compounds went through this panel and 20% of them were active in at least one assay; those are over-represented in the sample as a whole. Activity calls are given as the source filed them. How the source made its calls: active means growth percent below 10; inactive means the rest.
Classes used: active, inactive

- CCCCN(CCCC)CCCOC(=O)c1ccc(N)cc1: inactive
- CCCCCCCCCCCCNc1ncnc2[nH]ncc12: inactive
- COc1ncc(-c2ccc3nccc(C#CCN4CCN(S(C)(=O)=O)CC4)c3c2)cc1NS(=O)(=O)c1ccc(F)cc1F: active
- OCCOc1c(Cl)cc(Cl)cc1Cl: inactive
- Cc1nn(-c2ccccc2)c2c1oc(=O)c1cc(Cl)ccc12: inactive
- O=C(Cc1ccccn1)C(F)(F)C(F)(F)C(F)(F)F: inactive
- O=C(Nc1cccc(C(F)(F)F)c1)Nc1ccc(OCc2nnc(-c3ccc(Cl)cc3)o2)c(F)c1: inactive
- Cc1cc(NCCCNc2ccnc3cc(Cl)ccc23)nc(N2CCN(C)CC2)n1: inactive
- COc1ccc(C2=NN(C(C)=O)C(c3cc(OC)c(OC)c(OC)c3)C2)cc1 (stereo unspecified): inactive
- O=C1CC(C(F)(F)F)=NN1C(=O)c1nn(-c2ccc(Cl)cc2)cc1O: inactive
- Nc1nc(Cl)c2[nH]cnc2n1: inactive

====

Entries annotated with measured growth
# Tested on: SF-268 CNS
# Assay Explanation: NCI-60 one-dose screen, 48 h (100 = growth as untreated, 0 = no growth, -100 = all killed)
# Measurement Conditions: 10 µM unless noted
About 83,000 compounds went through this panel and 20% of them were active in at least one assay; those are over-represented in the sample as a whole.
Measurement Label: growth (%)

- O=c1[nH]c(Cl)nc2c1cnn2-c1ccccc1: 93
- O=c1[nH]c(=O)n(C2CC(O)C(CO)O2)cc1C(F)(F)F (stereo not given): 30.7
- COc1cc2cn3c4ccc(O)cc4nc(N)c3c2cc1OC: 20.8
- Cc1cc(C)c2c(c1)N1OC(C2)C[C@H]1/C=C/c1ccccc1 (stereo not given in full): 107
- Cc1c(C(N)=O)sc2c1C(=O)N(Cc1ccccc1)C1=NN=C(c3ccc(Cl)cc3)CN12: 38.6
- O=C(CCc1nnc(SCc2ccccc2)s1)c1nc2ccccc2[nH]1: 100
- COc1cc2c(c(OC)c1OC)-c1ccc(NN(C(=O)c3ccccc3)C(=O)c3ccccc3)c(=O)cc1[C@@H](NC(C)=O)CC2 (tested in a mixture with another compound): 48.9
- Cn1c(=O)c2nc(SCc3ccccc3)n(C)c2n(C)c1=O: 106
- c1cnc2n[nH]c(Nc3ncnc4c3sc3ncccc34)c2c1: 108
- CC(NC(=O)C(C)Oc1ccc(Cl)cc1Cl)C(=O)O (stereo not given): 102
- Nc1c2ccccc2nc2ccccc12 (tested in a mixture with another compound): 19.2
- CC(C)C(=O)Cc1cnccn1: 114
- CCC[C@H](N[C@@H](C)C(=O)N1[C@H](C(=O)O)C[C@@H]2CCCC[C@@H]21)C(=O)OCC: 105
- COc1ccc(-c2cc(Cc3cccs3)c(=O)n(Cn3cncn3)n2)cc1: 110
- CN1CCN(Cc2ccc(NC(=O)c3[nH]ncc3Nc3ccnc4ccnn34)cc2)CC1: 63.7
- Cc1cc(Cl)ccc1Nc1nc(C(F)(F)F)ccc1C(=O)NCC(=O)N/N=C/c1c(Cl)cccc1Cl: 31
- Clc1ccc2nc(Cl)c3ccccc3c2c1: 76.3
- Nc1ccc2c(c1)/C(=N/O)c1cc([N+](=O)[O-])ccc1-2: 62.6
- COc1cccc2c1C(=O)c1c(O)c3c(c(O)c1C2=O)C[C@@](O)(/C(C)=N/NC(=O)c1cccc([N+](=O)[O-])c1)C[C@@H]3OC1CC(N)C(O)C(C)O1 (stereo not given in full): -20
- COc1ccc2nc(-c3ccc(-n4cncc4-c4ccc(OC)c(N)c4)cc3)sc2c1: 109
